endpoint.label: melting point

Guide cases for melting point, answers given:
CNC(=O)c1cc(Cl)cc(C)c1NC(=O)c1cc(OCC(F)(F)F)nn1-c1ncccc1Cl	207 to 208 °C
CC(C)(C)NC(=O)c1cc(Cl)cc(Cl)c1NC(=O)c1cc(C(F)(F)F)nn1-c1ncccc1Cl	170 to 172 °C
CN(C)C(=O)c1cc(Cl)cc(Cl)c1NC(=O)c1cc(Cl)nn1-c1ncccc1Cl	231 to 232 °C

Query string: Please report the recorded melting point for CNC(=O)c1cc(I)cc(C)c1NC(=O)c1cc(Br)nn1-c1ncccc1Cl .
Result string: 229 to 230 °C

Query string: Please report the recorded melting point for Cc1cc(Br)cc(C(=O)N(C)C)c1NC(=O)c1cc(C(F)(F)F)nn1-c1ncccc1Cl .
Result string: 207 to 208 °C

---

// values below are reported melting point

Cc1cc(I)cc(C(=O)NC(C)(C)C)c1NC(=O)c1cc(Cl)nn1-c1ncccc1Cl	228 to 229 °C
Cc1cc(Br)cc(C(=O)NC(C)(C)C)c1NC(=O)c1cc(Cl)nn1-c1ncccc1Cl	224 to 225 °C
CNC(=O)c1cc(Br)cc(C)c1NC(=O)c1cc(Br)nn1-c1ncccc1Cl	147 to 149 °C
CCNC(=O)c1cc(Br)cc(C)c1NC(=O)c1cc(Cl)nn1-c1ncccc1Cl	192 to 194 °C
CCNC(=O)c1cc(Cl)cc(Cl)c1NC(=O)c1cc(Cl)nn1-c1ncccc1Cl	206 to 208 °C

Query string: Please report the recorded melting point for CNC(=O)c1cc(Cl)cc(Cl)c1NC(=O)c1cc(Br)nn1-c1ncccc1Cl .
Result string: 245 to 246 °C

Query string: Please report the recorded melting point for CN(C)C(=O)c1cc(Cl)cc(Cl)c1NC(=O)c1cc(C(F)(F)F)nn1-c1ncccc1Cl .
Result string: 225 to 227 °C

Query string: Please report the recorded melting point for CNC(=O)c1cc(Br)cc(Br)c1NC(=O)c1cc(Br)nn1-c1ncccc1Cl .
Result string: 166 to 168 °C

Query string: Please report the recorded melting point for CCNC(=O)c1cc(I)cc(C)c1NC(=O)c1cc(Cl)nn1-c1ncccc1Cl .
Result string: 196 to 197 °C

Query string: Please report the recorded melting point for CNC(=O)c1cc(Br)cc(C)c1NC(=O)c1cc(Cl)nn1-c1ncccc1Cl .
Result string: 140 to 141 °C

Query string: Please report the recorded melting point for CNC(=O)c1cc(Cl)cc(Cl)c1NC(=O)c1cc(OCC(F)(F)F)nn1-c1ncccc1Cl .
Result string: 192 to 195 °C

---

// values below are reported melting point

Guide cases for melting point, answers given:
CCNC(=O)c1cc(I)cc(C)c1NC(=O)c1cc(C(F)(F)F)nn1-c1ncccc1Cl	199 to 200 °C
CC(C)(C)NC(=O)c1cc(Cl)cc(Cl)c1NC(=O)c1cc(Br)nn1-c1ncccc1Cl	179 to 180 °C
CNC(=O)c1cc(Br)cc(C)c1NC(=O)c1cc(C(F)(F)F)nn1-c1ncccc1Cl	222 to 223 °C
CCNC(=O)c1cc(Cl)cc(Cl)c1NC(=O)c1cc(C(F)(F)F)nn1-c1ncccc1Cl	201 to 202 °C

Query string: Please report the recorded melting point for CC(C)(C)NC(=O)c1cc(Br)cc(Br)c1NC(=O)c1cc(Br)nn1-c1ncccc1Cl .
Result string: 194 to 196 °C

Query string: Please report the recorded melting point for CN(C)C(=O)c1cc(Br)cc(Br)c1NC(=O)c1cc(Cl)nn1-c1ncccc1Cl .
Result string: 153 to 155 °C

Query string: Please report the recorded melting point for CN(C)C(=O)c1cc(Br)cc(Br)c1NC(=O)c1cc(Br)nn1-c1ncccc1Cl .
Result string: 189 to 190 °C

Query string: Please report the recorded melting point for CC(C)NC(=O)c1cc(Cl)cc(Cl)c1NC(=O)c1cc(OCC(F)(F)F)nn1-c1ncccc1Cl .
Result string: 232 to 235 °C

Query string: Please report the recorded melting point for CC(C)(C)NC(=O)c1cc(Cl)cc(Cl)c1NC(=O)c1cc(Cl)nn1-c1ncccc1Cl .
Result string: 172 to 173 °C

Query string: Please report the recorded melting point for CCNC(=O)c1cc(Br)cc(C)c1NC(=O)c1cc(Br)nn1-c1ncccc1Cl .
Result string: 194 to 196 °C

Query string: Please report the recorded melting point for CC(C)NC(=O)c1cc(Cl)cc(Cl)c1NC(=O)c1cc(Br)nn1-c1ncccc1Cl .
Result string: 188 to 190 °C

Query string: Please report the recorded melting point for CCNC(=O)c1cc(Cl)cc(C)c1NC(=O)c1cc(OCC(F)(F)F)nn1-c1ncccc1Cl .
Result string: 205 to 207 °C

Query string: Please report the recorded melting point for CC(C)NC(=O)c1cc(Br)cc(Br)c1NC(=O)c1cc(Br)nn1-c1ncccc1Cl .
Result string: 162 to 163 °C

Query string: Please report the recorded melting point for CCNC(=O)c1cc(Cl)cc(C)c1NC(=O)c1cc(Cl)nn1-c1ncccc1Cl .
Result string: 199 to 200 °C

Query string: Please report the recorded melting point for Cc1cc(I)cc(C(=O)NC(C)C)c1NC(=O)c1cc(C(F)(F)F)nn1-c1ncccc1Cl .
Result string: 188 to 189 °C

Query string: Please report the recorded melting point for CCNC(=O)c1cc(Br)cc(Br)c1NC(=O)c1cc(Cl)nn1-c1ncccc1Cl .
Result string: 192 to 194 °C

Query string: Please report the recorded melting point for CC(C)NC(=O)c1cc(Br)cc(Br)c1NC(=O)c1cc(C(F)(F)F)nn1-c1ncccc1Cl .
Result string: 192 to 193 °C

Query string: Please report the recorded melting point for CC(C)(C)NC(=O)c1cc(Br)cc(Br)c1NC(=O)c1cc(Cl)nn1-c1ncccc1Cl .
Result string: 210 to 212 °C

Query string: Please report the recorded melting point for CC(C)(C)NC(=O)c1cc(Br)cc(Cl)c1NC(=O)c1cc(C(F)(F)F)nn1-c1ncccc1Cl .
Result string: 143 to 145 °C
